Biological target: Luciferin 4-monooxygenase (Photinus pyralis)
Assay: Biochemical firefly luciferase enzyme assay for NPC (AID 624030); also: nearly all actives have a fitted effect of over 70% in size
Settings: purified P. pyralis luciferase, luminescence, 5 min; series mostly up to 58.6 µM
Results filed as inconclusive are left out. Calls of active or inactive are those of the source. Calls follow the shape of the dose curve; as a rule, active = well fitted inhibition curve with a large enough effect; inconclusive = small, poorly fitted or top-dose-only effect; inactive = flat fitted curve, though single readings scatter.
Classes to choose from: active, inactive

For C[S+](C)CC[C@H](N)C(=O)O , what call appears in the results of this test? inactive

For CNC1C(O)C(OC2C(NC(=O)C(O)CN)CC(N)C(OC3OC(CN)C(O)C(O)C3O)C2O)OCC1(C)O (stereo not given) , what call appears in the results of this test? inactive

For OCC1O[C@H](O[C@H]2C(O)C(O)C(O)O[C@@H]2CO)C(O)C(O)C1O (stereo not given in full) , what call appears in the results of this test? inactive

For C[C@@H](O)[C@@H]1C(=O)N2C(C(=O)O)=C([C@H]3CCCO3)S[C@H]12 , what call appears in the results of this test? inactive

For O=C(O)Cc1sc(-c2ccc(Cl)cc2)nc1-c1ccccc1 , what call appears in the results of this test? active
